- ASSAY INFO: Single dose PK, phase 1, healthy European men
- Assay type: in vivo, human
- EXPERIMENTAL PARAMETERS: male, human, plasma, sc, 0.01 mg, single SC 0.01 mg, read-out: T½ (median) (converted)
Where a SMILES comes first, the peptide text is derived from it. [ ]: non-standard residue; d: D form. Arg(Me) = CNC(=N)NCCC[C@H](N)C(=O)O; Hyp = O=C(O)[C@@H]1C[C@@H](O)CN1; azaGly = NNC(=O)O
MEASUREMENT KIND: half-life (h)
Numbers only, in h.

Please give the measured half-life for this compound: CC(=O)O.CNC(=N)NCCC[C@H](NC(=O)[C@H](CC(C)C)NC(=O)NNC(=O)[C@H](Cc1ccccc1)NC(=O)[C@@H](NC(=O)[C@H](CC(N)=O)NC(=O)[C@@H]1C[C@@H](O)CN1C(=O)[C@@H](Cc1ccc(O)cc1)NC(C)=O)[C@@H](C)O)C(=O)N[C@@H](Cc1c[nH]c2ccccc12)C(N)=O [API-MA] (Ac-[dY][Hyp]NTF[azaGly]L[Arg(Me)]W-NH2) 2.17

---

- ASSAY INFO: Single dose PK, phase 1, healthy European men
- Type: in vivo, human
- EXPERIMENTAL PARAMETERS: male, human, urine, sc, 0.003 to 6 mg, bolus and infusion, read-out: Fe, range over cohorts
Where a SMILES comes first, the peptide text is derived from it. [ ]: non-standard residue; d: D form. Arg(Me) = CNC(=N)NCCC[C@H](N)C(=O)O; Hyp = O=C(O)[C@@H]1C[C@@H](O)CN1; azaGly = NNC(=O)O
MEASUREMENT KIND: dose excreted

Please give the measured dose excreted for this molecule: CC(=O)O.CNC(=N)NCCC[C@H](NC(=O)[C@H](CC(C)C)NC(=O)NNC(=O)[C@H](Cc1ccccc1)NC(=O)[C@@H](NC(=O)[C@H](CC(N)=O)NC(=O)[C@@H]1C[C@@H](O)CN1C(=O)[C@@H](Cc1ccc(O)cc1)NC(C)=O)[C@@H](C)O)C(=O)N[C@@H](Cc1c[nH]c2ccccc12)C(N)=O [API-MA] (Ac-[dY][Hyp]NTF[azaGly]L[Arg(Me)]W-NH2) 3.09 to 5.4%

---

- ASSAY INFO: Single dose PK, phase 1, healthy European men
- Assay type: in vivo, human
- EXPERIMENTAL PARAMETERS: male, human, plasma, subcutaneous, 2-hour INF 3 mg, geometric mean
Where a SMILES comes first, the peptide text is derived from it. [ ]: non-standard residue; d: D form. Arg(Me) = CNC(=N)NCCC[C@H](N)C(=O)O; Hyp = O=C(O)[C@@H]1C[C@@H](O)CN1; azaGly = NNC(=O)O
MEASUREMENT KIND: AUC(0-inf) (ng·h/mL)
Numbers only, in ng·h/mL.

Please give the measured AUC(0-inf) for this compound: CC(=O)O.CNC(=N)NCCC[C@H](NC(=O)[C@H](CC(C)C)NC(=O)NNC(=O)[C@H](Cc1ccccc1)NC(=O)[C@@H](NC(=O)[C@H](CC(N)=O)NC(=O)[C@@H]1C[C@@H](O)CN1C(=O)[C@@H](Cc1ccc(O)cc1)NC(C)=O)[C@@H](C)O)C(=O)N[C@@H](Cc1c[nH]c2ccccc12)C(N)=O [API-MA] (Ac-[dY][Hyp]NTF[azaGly]L[Arg(Me)]W-NH2) 141

---

- ASSAY INFO: Single dose PK, phase 1, healthy Japanese men
- Type: in vivo, human
- EXPERIMENTAL PARAMETERS: male, human, plasma, sc, 0.004 mg, single SC bolus 0.004 mg, mean
Where a SMILES comes first, the peptide text is derived from it. [ ]: non-standard residue; d: D form. Arg(Me) = CNC(=N)NCCC[C@H](N)C(=O)O; Hyp = O=C(O)[C@@H]1C[C@@H](O)CN1; azaGly = NNC(=O)O
MEASUREMENT KIND: AUC(0-inf)
Respond with the figure and its unit, in that order.

Please give the measured AUC(0-inf) for this compound: CC(=O)O.CNC(=N)NCCC[C@H](NC(=O)[C@H](CC(C)C)NC(=O)NNC(=O)[C@H](Cc1ccccc1)NC(=O)[C@@H](NC(=O)[C@H](CC(N)=O)NC(=O)[C@@H]1C[C@@H](O)CN1C(=O)[C@@H](Cc1ccc(O)cc1)NC(C)=O)[C@@H](C)O)C(=O)N[C@@H](Cc1c[nH]c2ccccc12)C(N)=O [API-MA] (Ac-[dY][Hyp]NTF[azaGly]L[Arg(Me)]W-NH2) 0.205 ng·h/mL

---

- ASSAY INFO: Pharmacokinetics in dogs after SC and IV administration
- EXPERIMENTAL PARAMETERS: dog, in vivo, sc, 1 mg/kg, T½ β
Where a SMILES comes first, the peptide text is derived from it. [ ]: non-standard residue; d: D form. Arg(Me) = CNC(=N)NCCC[C@H](N)C(=O)O; Hyp = O=C(O)[C@@H]1C[C@@H](O)CN1; azaGly = NNC(=O)O
MEASUREMENT KIND: half-life
Respond with the figure and its unit, in that order.

Please give the measured half-life for this compound: CNC(=N)NCCC[C@H](NC(=O)[C@H](CC(C)C)NC(=O)NNC(=O)[C@H](Cc1ccccc1)NC(=O)[C@@H](NC(=O)[C@H](CC(N)=O)NC(=O)[C@@H]1C[C@@H](O)CN1C(=O)[C@@H](Cc1ccc(O)cc1)NC(C)=O)[C@@H](C)O)C(=O)N[C@@H](Cc1c[nH]c2ccccc12)C(N)=O [Compound 1] (Ac-[dY][Hyp]NTF[azaGly]L[Arg(Me)]W-NH2) 1.4 h

---

- ASSAY INFO: Pharmacokinetics in monkeys after SC and IV administration
- EXPERIMENTAL PARAMETERS: monkey, in vivo; monkeys, IV 1 mg/kg; read-out: AUC(0-24)
Where a SMILES comes first, the peptide text is derived from it. [ ]: non-standard residue; d: D form. Arg(Me) = CNC(=N)NCCC[C@H](N)C(=O)O; Hyp = O=C(O)[C@@H]1C[C@@H](O)CN1; azaGly = NNC(=O)O
MEASUREMENT KIND: AUC(0-t) (ng·h/mL)
Numbers only, in ng·h/mL.

Please give the measured AUC(0-t) for this molecule: CC(=O)O.CNC(=N)NCCC[C@H](NC(=O)[C@H](CC(C)C)NC(=O)NNC(=O)[C@H](Cc1ccccc1)NC(=O)[C@@H](NC(=O)[C@H](CC(N)=O)NC(=O)[C@@H]1C[C@@H](O)CN1C(=O)[C@@H](Cc1ccc(O)cc1)NC(C)=O)[C@@H](C)O)C(=O)N[C@@H](Cc1c[nH]c2ccccc12)C(N)=O [API-MA] (Ac-[dY][Hyp]NTF[azaGly]L[Arg(Me)]W-NH2) 3160

---

- ASSAY INFO: Single dose PK, phase 1, healthy Japanese men
- Format: in vivo, human
- EXPERIMENTAL PARAMETERS: male, human, plasma, sc, 0.5 mg, single SC bolus 0.5 mg, mean, read-out: T½ (converted)
Where a SMILES comes first, the peptide text is derived from it. [ ]: non-standard residue; d: D form. Arg(Me) = CNC(=N)NCCC[C@H](N)C(=O)O; Hyp = O=C(O)[C@@H]1C[C@@H](O)CN1; azaGly = NNC(=O)O
MEASUREMENT KIND: half-life

Please give the measured half-life for this compound: CC(=O)O.CNC(=N)NCCC[C@H](NC(=O)[C@H](CC(C)C)NC(=O)NNC(=O)[C@H](Cc1ccccc1)NC(=O)[C@@H](NC(=O)[C@H](CC(N)=O)NC(=O)[C@@H]1C[C@@H](O)CN1C(=O)[C@@H](Cc1ccc(O)cc1)NC(C)=O)[C@@H](C)O)C(=O)N[C@@H](Cc1c[nH]c2ccccc12)C(N)=O [API-MA] (Ac-[dY][Hyp]NTF[azaGly]L[Arg(Me)]W-NH2) 4.27 h

---

- ASSAY INFO: Single dose PK, phase 1, healthy Japanese men
- Type: in vivo, human
- EXPERIMENTAL PARAMETERS: male, human, plasma, sc, 0.5 mg, single 2-hour SC INF 0.5 mg, read-out: Tmax, median (range)
Where a SMILES comes first, the peptide text is derived from it. [ ]: non-standard residue; d: D form. Arg(Me) = CNC(=N)NCCC[C@H](N)C(=O)O; Hyp = O=C(O)[C@@H]1C[C@@H](O)CN1; azaGly = NNC(=O)O
MEASUREMENT KIND: Tmax (h)
Give bare numbers, in h.

Please give the measured Tmax for this compound: CC(=O)O.CNC(=N)NCCC[C@H](NC(=O)[C@H](CC(C)C)NC(=O)NNC(=O)[C@H](Cc1ccccc1)NC(=O)[C@@H](NC(=O)[C@H](CC(N)=O)NC(=O)[C@@H]1C[C@@H](O)CN1C(=O)[C@@H](Cc1ccc(O)cc1)NC(C)=O)[C@@H](C)O)C(=O)N[C@@H](Cc1c[nH]c2ccccc12)C(N)=O [API-MA] (Ac-[dY][Hyp]NTF[azaGly]L[Arg(Me)]W-NH2) 2.5

Values were extracted from patent US11013780B2.
